- target_entity: Carbonic anhydrase 2 (Homo sapiens) (UniProt P00918)
- protocol_text: compounds binding carbonic anhydrase 2 – biochemical, small-molecule microarray, Alexa647-labelled CAII, profiling panel (AID 1122)
- test_conditions: CAII-A647 binding fluorescence, higher = more signal
Use met when the recorded composite z-score is no lower than 0.3; use not met when it is lower.

See these solved cases before continuing.
[[record]]
molecule = "COCCOC(=O)N1C(=O)[C@@]2(c3cc(C#CCCO)ccc31)[C@H](c1ccc(OCCO)cc1)N1[C@H](c3ccccc3)[C@H](c3ccccc3)OC(=O)[C@H]1[C@@H]2C(=O)Nc1nc2ccccc2s1"
class_name = "met"

[[record]]
molecule = "Cc1ccc(S[C@]2(C(=O)NCC(F)(F)F)CC(=O)N(Cc3cc(C(F)(F)F)cc(C(F)(F)F)c3)[C@@H]2c2ccc(CO)cc2I)cc1"
class_name = "not met"

[[record]]
molecule = "CC(C)N1CC=CC23O[C@@H]4C=CCCOC(=O)C4[C@H]2C(=O)N(CCCO)[C@@H]3C1=O (stereo partly drawn)"
class_name = "met"

[[record]]
molecule = "CCCCCN1CC=CC23O[C@@H]4C=CCCOC(=O)C4[C@H]2C(=O)N(CCCCCCO)[C@@H]3C1=O (stereo partly drawn)"
class_name = "met"

[[record]]
molecule = "CC#CCO[Si](C#Cc1ccccc1)(C(C)C)C(C)C"
class_name = "not met"


**Q:** Decide: is the reported value of composite z-score for C=C[C@H]1C(C(=O)OCC)=CC[C@@H](c2ccccc2)N1S(=O)(=O)c1ccc(C)cc1 equal to or greater than 0.3?
**A:** met

**Q:** Determine whether this molecule has composite z-score no lower than 0.3: Cc1ccc(F)cc1S(=O)(=O)N[C@@H]1CCN(Cc2ccc(Br)cc2)C1
**A:** not met

**Q:** Check the entry CC1=C2[C@@H](CCc3ccccc3)OB(O)C[C@@H]2[C@@H]2C(=O)N(C)C(=O)[C@@H]2C1 : does composite z-score equal or exceed 0.3?
**A:** met
